# measured target: full-length androgen receptor (Homo sapiens)
# Construct: HEK293 cells stably expressing the full-length androgen receptor; expressed in transfected cells
# Sequence (P10275 whole entry): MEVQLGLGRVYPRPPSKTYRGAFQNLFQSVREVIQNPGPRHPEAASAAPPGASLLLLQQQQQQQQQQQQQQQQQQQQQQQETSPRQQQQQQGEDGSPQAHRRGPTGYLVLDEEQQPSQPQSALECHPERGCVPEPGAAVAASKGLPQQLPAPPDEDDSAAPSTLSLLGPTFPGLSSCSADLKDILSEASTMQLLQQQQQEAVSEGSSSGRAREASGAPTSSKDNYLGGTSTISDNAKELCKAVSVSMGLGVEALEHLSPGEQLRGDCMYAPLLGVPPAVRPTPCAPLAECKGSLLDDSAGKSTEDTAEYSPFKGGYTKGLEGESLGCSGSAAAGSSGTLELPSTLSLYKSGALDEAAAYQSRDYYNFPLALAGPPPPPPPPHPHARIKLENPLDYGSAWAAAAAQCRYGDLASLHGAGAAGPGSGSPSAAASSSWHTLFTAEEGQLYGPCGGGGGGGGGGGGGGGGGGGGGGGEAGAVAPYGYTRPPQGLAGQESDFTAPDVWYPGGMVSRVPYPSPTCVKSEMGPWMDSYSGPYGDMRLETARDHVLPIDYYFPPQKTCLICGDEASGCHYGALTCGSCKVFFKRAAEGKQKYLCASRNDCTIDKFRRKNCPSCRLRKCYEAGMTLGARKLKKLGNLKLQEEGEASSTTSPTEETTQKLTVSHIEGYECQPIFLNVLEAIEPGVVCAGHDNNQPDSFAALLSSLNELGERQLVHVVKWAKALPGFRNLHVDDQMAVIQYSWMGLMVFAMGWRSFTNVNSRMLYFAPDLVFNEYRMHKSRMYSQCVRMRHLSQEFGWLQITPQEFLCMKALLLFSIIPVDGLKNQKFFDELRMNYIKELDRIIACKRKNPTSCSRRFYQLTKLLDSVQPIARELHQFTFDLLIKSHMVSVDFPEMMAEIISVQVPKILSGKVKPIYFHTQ
# assay summary: AR antagonism assay (HEK293, testosterone 1 nM, Steady-glo)
# Format: cell-based
# condition details: Table 8; testosterone 1 nM; read-out: AR antagonism
pIC50: −log10 of the molar value.
Consider the following molecules; for each one, report its pIC50.

INSERT INTO results (molecule, measured_result) VALUES
  ('C[C@]12CC[C@H]3[C@@H](CCC4=CC(=O)CC[C@@]43C)[C@@H]1CC[C@@H]2C(=O)COCCCCCC(=O)N1CCN(C(=O)c2cc(Cc3n[nH]c(=O)c4ccccc34)ccc2F)CC1 [Compound 1386]', '6.00 to 7.00');

Provide reported pIC50 for each item, in the same order as listed.
1. CC(=O)O[C@]1(C(C)=O)CC[C@H]2[C@@H]3CCC4=CC(=O)CCC4=C3[C@@H](c3ccc(N(C)CCCCCC(=O)NCCOCCOCC(=O)N4CCN(C(=O)c5cc(Cc6n[nH]c(=O)c7ccccc67)ccc5F)CC4)cc3)C[C@@]21C [Compound 1384]
2. CC#C[C@]1(O)CC[C@H]2[C@@H]3CCC4=CC(=O)CCC4=C3[C@@H](c3ccc(N(C)CCCCCC(=O)NCCOCCOCC(=O)N4CCN(C(=O)c5cc(Cc6n[nH]c(=O)c7ccccc67)ccc5F)CC4)cc3)C[C@@]21C [Compound 1429]

< 5.00
< 5.00
